System: SF-268 CNS
Test: NCI tumour cell line growth inhibition, 48 h; in the data active = GI50 below about 0.43 µM; inactive = the rest
Result category, one only: true (1) = active, false (0) = inactive

Answered examples (3):
compound	experimentalSystem	labelValue
COc1ccc(/C=C2\CCC/C(=C\c3ccc(OC)c(OC)c3)C2=O)cc1OC	SF-268 CNS	false (0)
COc1ccc(Nc2cnc3cc(N)cc(N)c3n2)cc1	SF-268 CNS	false (0)
COc1cc(-c2nccc3[nH]c(-c4ccc5cc[nH]c5c4)nc23)cc(OC)c1OC	SF-268 CNS	true (1)

Test call, this compound: C=C(C#N)C(=O)OCC(CC)CC.C=C(C#N)C(=O)OCC(CC)CC.CS(C)=O.CS(C)=O.Nc1c(N=Nc2ccc(-c3ccc(N=Nc4cc(S(=O)(=O)[O-])c5ccccc5c4N)cc3)cc2)cc(S(=O)(=O)[O-])c2ccccc12.[Pt+2]
false (0)

Next entry: COCCN(Cc1ccc(F)cc1)c1ccc(CO)c(Cl)c1
false (0)

Please answer likewise for Nc1nccc(-c2c(-c3ccc(F)cc3)nn3cc(C(F)(F)F)ccc23)n1
false (0)

Then CC(=O)NC1C(O[C@H]2C[C@H]3[C@@H]4CC=C5C[C@@H](O)CC[C@]5(C)[C@H]4CC[C@]3(C)[C@H]2[C@H](C)C(=O)CCC(C)C)OCC(O)C1O (stereo not given in full) ?
false (0)

Same question for C=CCN(CC=C)C(=O)c1cc(C)nc2c1c(=O)n(-c1ccccc1)c(=O)n2CCCN1CCN(c2ccccc2OC)CC1 please.
false (0)

Consider next the compound CCc1ccc(Nc2cc(C)c3ccc(O)cc3n2)cc1 in the same way.
false (0)

Consider next the compound CSc1nc2nc(-c3ccccc3)c(C)c-2c2n1C(C)C(=O)N2 (stereo not given) in the same way.
false (0)
